- Tested on: caspase-3/7 activity in Hep3B cell line
- test_protocol: One-step cellular caspase-3/7 activity assay
- Type: cell-based, human
- conditions: 1600 nM, 24 hours; 0 nM = 1.00
So basically: Relative caspase-3/7 activity in Hep3B cell line at 9 or higher? That is Condition met. Lower than 9? That is Condition not met.

Would you please look over these solved cases?
[
  {
    "compound": "NC1CCC(Nc2nc(NCc3ccc(-c4cccs4)cc3)c3ncn(C4CCCC4)c3n2)CC1 (stereo not drawn) [BP2]",
    "assay_target": "caspase-3/7 activity in Hep3B cell line",
    "class_name": "Condition not met"
  },
  {
    "compound": "NC1CCC(Nc2nc(NCc3ccc(-c4ccco4)nc3)c3ncn(C4CCCC4)c3n2)CC1 (stereo not drawn) [BP14]",
    "assay_target": "caspase-3/7 activity in Hep3B cell line",
    "class_name": "Condition met"
  },
  {
    "compound": "NC1CCC(Nc2nc(NCc3ccc(-c4ccccc4O)cc3)c3ncn(C4CCCC4)c3n2)CC1 (stereo not drawn) [BP17]",
    "assay_target": "caspase-3/7 activity in Hep3B cell line",
    "class_name": "Condition not met"
  },
  {
    "compound": "NC1CCC(Nc2nc(NCc3ccc(-c4cccs4)nc3)c3ncn(C4CCCC4)c3n2)CC1 (stereo not drawn) [BP30]",
    "assay_target": "caspase-3/7 activity in Hep3B cell line",
    "class_name": "Condition met"
  },
  {
    "compound": "OC1CCC(Nc2nc(NCc3ccc(-c4ccco4)nc3)c3ncn(C4CCCC4)c3n2)CC1 (stereo not drawn) [BP21]",
    "assay_target": "caspase-3/7 activity in Hep3B cell line",
    "class_name": "Condition not met"
  },
  {
    "compound": "NC1CCC(Nc2nc(NCc3ccc(-c4ccoc4)cc3)c3ncn(C4CCCC4)c3n2)CC1 (stereo not drawn) [BP13]",
    "assay_target": "caspase-3/7 activity in Hep3B cell line",
    "class_name": "Condition not met"
  },
  {
    "compound": "NC1CCC(Nc2nc(NCc3ccc(-c4cccc(F)c4)cc3)c3ncn(C4CCCC4)c3n2)CC1 (stereo not drawn) [BP12]",
    "assay_target": "caspase-3/7 activity in Hep3B cell line",
    "class_name": "Condition met"
  },
  {
    "compound": "NC1CCC(Nc2nc(NCc3ccc(-n4cccn4)cc3)c3ncn(C4CCCC4)c3n2)CC1 (stereo not drawn) [BP24]",
    "assay_target": "caspase-3/7 activity in Hep3B cell line",
    "class_name": "Condition met"
  }
]

Challenge: Tell me whether Relative caspase-3/7 activity in Hep3B cell line is at least 9 here: Nc1ccccc1-c1ccc(CNc2nc(NC3CCC(N)CC3)nc3c2ncn3C2CCCC2)cn1 (stereo not drawn) [BP22]
Response given: Condition not met

Challenge: Tell me whether Relative caspase-3/7 activity in Hep3B cell line is at least 9 here: CC(C)(O)CNc1nc(NCc2ccc(-c3ccco3)cc2)c2ncn(C3CCCC3)c2n1 [BP115]
Response given: Condition not met

Challenge: Tell me whether Relative caspase-3/7 activity in Hep3B cell line is at least 9 here: Nc1ccccc1-c1ccc(CNc2nc(NC3CCC(N)CC3)nc3c2ncn3C2CCCC2)cc1 (stereo not drawn) [BP32]
Response given: Condition not met

// data source = patent US20150368248A1
